PROTOCOL DETAILS: Cytotoxicity against human HuH7 cells
Format: cell-based, Huh-7
Recorded CC50, one value per entry.

{"COMPOUND": "CC(C)(C)NC(=O)Nc1nc(Cl)c(CCC2CCCCC2)n(CC(=O)Nc2cc(F)ccc2C(=O)NS(=O)(=O)c2ccc(C(F)(F)F)cc2)c1=O", "CC50": "38 µM"}
{"COMPOUND": "CC(C)(C)NC(=O)Nc1nc(Cl)c(CCC2CCCCC2)n(CC(=O)Nc2ccccc2C(=O)O)c1=O", "CC50": "> 100 µM"}
{"COMPOUND": "CC(C)(C)OC(=O)N[C@H]1CCCCC/C=C\\[C@@H]2C[C@@]2(C(=O)NS(=O)(=O)C2CC2)NC(=O)[C@@H]2C[C@@H](OC(=O)N3Cc4cccc(F)c4C3)CN2C1=O [DANOPREVIR]", "CC50": "> 1 µM"}
{"COMPOUND": "COC(=O)c1ccccc1NC(=O)Cn1c(CCC2CCCCC2)c(Cl)nc(NC(=O)NC(C)(C)C)c1=O", "CC50": "> 100 µM"}

// next entry
# input Provide CC50 value for the following compound: CCCC(NC(=O)[C@@H]1[C@H]2CCC[C@H]2CN1C(=O)[C@@H](NC(=O)[C@@H](NC(=O)c1cnccn1)C1CCCCC1)C(C)(C)C)C(=O)C(=O)NC1CC1 (stereo not given in full)
# output > 1 µM
